System: pseudotyped VSVs harboring SARS-CoV-2 S (SARS2-Spp)
Experiment: microbe, parasite or virus in culture
Format: cell-based
Settings: Severe acute respiratory syndrome coronavirus 2, Huh-7, 24 h
readout.label: EC50

Some compounds with known EC50 results, for comparison:
> print(dat)
                                   compound  assay.result
1  CN(C)C(=O)COC(=O)Cc1ccc(OC(=O)c2ccc(NC(=N)N)cc2)cc1      > 100 µM
2  CN1CCN([C@@H](c2ccccc2)c2ccc(Cl)cc2)CC1 [(S)-CCZ, (S)-chlorcyclizine]        9.2 µM
3  CCN(CC)CCCC(C)Nc1ccnc2cc(Cl)ccc12 (centres unmarked)       4.38 µM

Task item: Please report the recorded EC50 for `CCN1CCN(C(c2ccc(Cl)cc2)c2ccc(Cl)cc2)CC1` .
Reply: 3.05 µM

Task item: # repeat for `Cc1cc(-c2nc(CN3CCC(C(=O)NCCCN4C[C@H](C)C[C@H](C)C4)CC3)co2)ccc1F`
Reply: 2.64 µM

###

Tested on: pseudotyped VSVs harboring SARS-CoV-2 S (SARS2-Spp)
Experiment: microbe, parasite or virus in culture
Type: cell-based
Details: Severe acute respiratory syndrome coronavirus 2
readout.label: EC50 (µM)
Value expressed in µM; do not type the unit.

Task item: Please report the recorded EC50 for O=C(CCCCC1SCC2NC(=O)NC21)NCCOCCOCCN1CCN(C(c2ccc(Cl)cc2)c2ccc(C3(C(F)(F)F)N=N3)cc2)CC1 (centres unmarked) .
Reply: 12.9
